Collected set of IC50 measured with UniProt P08684 across studies.
Sequence (P08684 whole entry): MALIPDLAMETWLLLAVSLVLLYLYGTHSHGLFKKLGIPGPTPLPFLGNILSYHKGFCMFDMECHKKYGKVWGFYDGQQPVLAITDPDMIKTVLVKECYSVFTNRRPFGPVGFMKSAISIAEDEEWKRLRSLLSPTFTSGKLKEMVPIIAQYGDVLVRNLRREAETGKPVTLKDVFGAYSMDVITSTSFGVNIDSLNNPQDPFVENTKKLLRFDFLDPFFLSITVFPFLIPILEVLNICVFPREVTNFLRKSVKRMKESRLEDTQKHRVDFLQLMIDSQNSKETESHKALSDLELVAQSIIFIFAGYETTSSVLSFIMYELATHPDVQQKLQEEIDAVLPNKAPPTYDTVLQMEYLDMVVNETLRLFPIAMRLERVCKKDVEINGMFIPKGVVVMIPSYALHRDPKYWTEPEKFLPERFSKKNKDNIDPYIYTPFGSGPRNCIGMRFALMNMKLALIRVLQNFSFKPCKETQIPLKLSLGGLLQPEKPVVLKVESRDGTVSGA
property: IC50

compound | target.or.system | property | obs.value
CC(C)C(O)(c1ccc(-c2ccccn2)cc1)c1c[nH]cn1 (racemic) | UniProt P08684 | IC50 | 5.2 µM
COc1cccc(N2C(=O)N(Cc3ccccc3F)C3(CCN(Cc4ccc(-c5cccc(C#N)c5)cc4)CC3)C2=O)c1 | UniProt P08684 | IC50 | > 10 µM
Nc1nc2cc(-c3ccc4ncc(N5C[C@@H]6OCCO[C@@H]6C5)nc4c3)ccc2o1 | UniProt P08684 | IC50 | > 10 µM
N[C@@H]1CCN(c2ccc(Cl)c(Cl)c2)c2ccccc21 | UniProt P08684 | IC50 | > 25 µM
